B1: RIPK4 (parent)
chain: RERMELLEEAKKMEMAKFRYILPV

Variants of: B1
Assay: protein stability index of a GFP-peptide fusion (GPS, HEK-293T) (PSI 1-6); higher = more stable;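 also: lentivirally expressed fusions sorted by FACS into six bins by GFP to DsRed ratio, PSI derived from sequencing read proportions per bin multiplied by bin number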
Settings: c terminus: a fixed tail appended
Rule: criterion met for protein stability index not less than 3, criterion not met for anything less.

Answered cases to consult:
RERMELLEHAKKMEMAKFRYILPV
criterion not met
RERMELLEEAKKMQMAKFRYILPV
criterion met
RERMELLEEAKKMEMAKFRWILPV
criterion not met
RERMELLEEAFKMEMAKFRYILPV
criterion not met
RERMELLEEAKKMEMAKFTYILPV
criterion not met
RERMELLEEAKLMEMAKFRYILPV
criterion not met
RERMELLEEAKKMEYAKFRYILPV
criterion met
PERMELLEEAKKMEMAKFRYILPV
criterion met
SERMELLEEAKKMEMAKFRYILPV
criterion met
KERMELLEEAKKMEMAKFRYILPV
criterion met

Request: Check this variant for protein stability index at or above 3: RERMELLEEAKKMEWAKFRYILPV
Result: criterion not met

Request: Exam item: decide whether the reported protein stability index for RERMELLEEAKKMEMAQFRYILPV is at least 3.
Result: criterion met

Request: Is reported protein stability index greater than or equal to 3 here: RERMELLEEADKMEMAKFRYILPV
Result: criterion met

Request: Quick check: does FERMELLEEAKKMEMAKFRYILPV have protein stability index greater than or equal to 3?
Result: criterion met

Request: Determine whether measured protein stability index meets or exceeds 3 for REREELLEEAKKMEMAKFRYILPV
Result: criterion met

Request: Check this variant for protein stability index at or above 3: REPMELLEEAKKMEMAKFRYILPV
Result: criterion met

Request: Form field: protein stability index at least 3? Entry: RERMELLEEAKVMEMAKFRYILPV
Result: criterion not met

Request: Confirm if protein stability index reported for the variant RERMELLEEAKKMEMAKTRYILPV is 3 or above.
Result: criterion met

Request: Check this variant for protein stability index at or above 3: RERMELLEEAKTMEMAKFRYILPV
Result: criterion not met

Request: Threshold query (protein stability index >= 3) on RERMELMEEAKKMEMAKFRYILPV
Result: criterion met

Request: Does protein stability index meet or surpass 3 for RERMELLEEAKKMFMAKFRYILPV ?
Result: criterion not met

Request: Threshold query (protein stability index >= 3) on RERMELLEEAKKMEMAKFRAILPV
Result: criterion met

Request: Does the variant RPRMELLEEAKKMEMAKFRYILPV have recorded protein stability index that is 3 or more?
Result: criterion met
